// data source = paper PMC11277489

Entries annotated with measured activity at 10 µM
# Tested on: MCF7
# Procedure summary: NCI60 one-dose screen (10 μM), Breast Cancer
# Format: cell-based
# Condition notes: Homo sapiens; 10 μM; MCF7, Breast Cancer; read-out: Growth percent rate
Numbers only; they are read as %.

compound="CCC12C=CCN3CCC4(c5cc(NC(=O)CN6CCN(C(c7ccc(F)cc7)c7ccc(F)cc7)CC6)c(OC)cc5N(C)C4C(O)(C(=O)OC)C1OC(C)=O)C32 (centres unmarked)" quantity_unit=% value_measured=5.47
compound=CC[C@]12C=CCN3CC[C@@]4(c5ccc(OC)cc5N(C)[C@H]4[C@@](O)(C(=O)OC)[C@@H]1OC(=O)CCC(=O)N1CCN(Cc4ccc(F)cc4)CC1)[C@@H]32 quantity_unit=% value_measured=62.2
compound="CCC12C=CCN3CCC4(c5cc(NC(=O)CN6CCN(c7ccc(C(F)(F)F)cc7)CC6)c(OC)cc5N(C)C4C(O)(C(=O)OC)C1OC(C)=O)C32 (centres unmarked)" quantity_unit=% value_measured=0.95
compound="CCC12C=CCN3CCC4(c5cc(NC(=O)CN6CCN(C)CC6)c(OC)cc5N(C)C4C(O)(C(=O)OC)C1OC(C)=O)C32 (centres unmarked)" quantity_unit=% value_measured=84.3

So, "CC[C@]12C=CCN3CC[C@@]4(c5ccc(OC)cc5N(C)[C@H]4[C@@](O)(C(=O)OC)[C@@H]1OC(=O)CCC(=O)N1CCN(C(c4ccc(F)cc4)c4ccc(F)cc4)CC1)[C@@H]32" ? Its activity at 10 µM was -28.7

So, "CC[C@]12C=CCN3CC[C@@]4(c5ccc(OC)cc5N(C)[C@H]4[C@@](O)(C(=O)OC)[C@@H]1OC(=O)CCC(=O)N1CCN(C)CC1)[C@@H]32" ? Its activity at 10 µM was 81
